Entries and their koff
biological target: T1, human serum albumin (human, UniProt P02768 25-609); test: SPR Biacore 8K+, HSA amine-coupled on C1 chip, ISVD analyte, 1:1 fit
T1 construct: Immobilised by amine coupling on a C1 chip; also called HSA
T1 sequence (P02768 25-609 limits assumed): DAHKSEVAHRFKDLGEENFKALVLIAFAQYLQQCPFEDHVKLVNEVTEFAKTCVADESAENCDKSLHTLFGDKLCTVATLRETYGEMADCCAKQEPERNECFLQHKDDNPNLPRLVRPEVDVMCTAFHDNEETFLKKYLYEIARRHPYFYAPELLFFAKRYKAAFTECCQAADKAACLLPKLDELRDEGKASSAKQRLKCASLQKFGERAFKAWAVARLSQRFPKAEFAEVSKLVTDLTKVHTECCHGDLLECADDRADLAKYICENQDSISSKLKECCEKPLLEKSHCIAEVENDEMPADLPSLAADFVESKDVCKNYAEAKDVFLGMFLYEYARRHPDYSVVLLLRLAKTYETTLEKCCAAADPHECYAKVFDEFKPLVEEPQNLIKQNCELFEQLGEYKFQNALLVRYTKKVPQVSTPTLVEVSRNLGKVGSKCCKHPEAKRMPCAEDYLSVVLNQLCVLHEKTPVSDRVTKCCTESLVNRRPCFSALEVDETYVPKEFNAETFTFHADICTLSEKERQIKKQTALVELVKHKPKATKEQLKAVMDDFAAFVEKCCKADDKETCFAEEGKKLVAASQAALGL
Could you give me the number in s⁻¹? Just the number is fine.

INSERT INTO results (binder, reported_endpoint, unit_of_measurement, reported_measurement) VALUES
  ('T028501807 (VHH, K43Q vs precursor T028501805; also called HSA006A06(K43Q, K83R)) VHH: EVQLVESGGGVVQPGGSLRLSCAASGFTFRSFGMSWVRQAPGQGPEWVSSISGSGSDTLYADSVKGRFTISRDNSKNTLYLQMNSLRPEDTALYYCTIGGSLSRSSQGTLVTVSS', 'koff', 's⁻¹', 0.00119);

Now let's try a different one.
Need koff, item T028501836 (VHH) VHH: EVQLVESGGGVVQPGGSLRLSCAASGFTFRSFGMSWVRQAPGKGPEWVSSISGSGSDTLYADSVKGRFTISRDNSHNTLYLQMNSLRPEDTALYYCTIGGSLSRSSQGTLVTVSS
0.00114
